System: p52 (NF-kB2) nuclear translocation, HeLa cells
Experiment: p52 (NF-kB2) nuclear translocation assay in HeLa cells (non-classical NF-kB signaling, anti-lymphotoxin beta receptor antibody stimulated)
Type: cell-based
Settings: Homo sapiens, 100 ng/mL anti-lymphotoxin beta receptor antibody for 5 hours, read-out: p52 HeLa Transloc Assay (IC50)
Documented pIC50 across a set of molecules
Notebook: values listed as pIC50 are -log10 of the concentration (mol/L).

A selection of reference data follows.
C[C@@H]1CCc2c1c(C(N)=O)nn2-c1cccc(C#C[C@]2(O)CCN(C)C2=O)c1; 6.68
CN1CC[C@@](O)(C#Cc2cccc(-c3nc(C(N)=O)n4ccc(OC5CCC5)cc34)c2)C1=O; 7.22

Just so you know, measured pIC50 for CN1CC[C@@](O)(C#Cc2cccc(-n3nc(C(N)=O)c4c3OCCC4)c2)C1=O came out at 6.73

get_value(item= CN1CC[C@@](O)(C#Cc2cccc(-n3nc(C(N)=O)c4ccncc43)c2)C1=O , readout=pIC50) returns 6.96

For CN1CC[C@@](O)(C#Cc2cccc(-c3nc(C(N)=O)n4ccc(CN5CCOCC5)cc34)c2)C1=O the molecule record lists pIC50 as 6.64

Kindly note the recorded pIC50 for CN1CC[C@@](O)(C#Cc2cccc(-n3nc(C(N)=O)c4c3CCC[C@H]4O)c2)C1=O , which is 6.56

For record CN1CC[C@@](O)(C#Cc2cccc(-n3nc(C(N)=O)c4ccc(N5CCOCC5)nc43)c2)C1=O the listed pIC50 is 6.89

Short answer for CN1CC[C@@](O)(C#Cc2cccc(-c3nc(C(N)=O)n4cccnc34)c2)C1=O : pIC50 was 7.41
